Origin of values: ChEMBL document CHEMBL4689842

- Tested on: Fibroblast
- EXPERIMENTAL_DETAILS: Multiplex assay against human fibroblast
- Type: toxicity, cell-based
- EXPERIMENTAL_CONTEXT: 12 h, 1 µM, compound concentration 1 uM, replicate 2

- MOLECULE: "O=c1[nH]c2ccccc2n1C1CCN(Cc2ccc(-c3[nH]c4cc5ncnc5cc4nc3-c3ccccc3)cc2)CC1"
  Total Cell Count: 99
- MOLECULE: "COC(=O)C1=C(C)NC(C)=C(C(=O)OCCCN2CCC(c3ccccc3)(c3ccccc3)CC2)[C@H]1c1cccc([N+](=O)[O-])c1"
  Total Cell Count: 945
- MOLECULE: "CNC(=O)Nc1ccc2c(c1)[C@@]1(CC2)OC(=O)N(CC(=O)N(Cc2ccc(F)cc2)[C@@H](C)C(F)(F)F)C1=O"
  Total Cell Count: 87
- MOLECULE: "Cc1cccc(CN2CCN(C(c3ccccc3)c3ccc(Cl)cc3)CC2)c1.Cl.Cl (stereo unspecified)"
  Total Cell Count: 48
- MOLECULE: "Cc1ccc(C)c(Oc2ccncc2C(=O)N2CCN(C3CC3)c3ccccc32)c1"
  Total Cell Count: 73
- MOLECULE: "CCOC(=O)Nc1cc(-c2ccc(C)c(NS(C)(=O)=O)c2)nn2c(C)nnc12"
  Total Cell Count: 81
- MOLECULE: "Cl.O=C(O)c1cc(-c2ccc(C3CCNCC3)cc2)c2ccc(-c3ccc(C(F)(F)F)cc3)cc2c1"
  Total Cell Count: 60
- MOLECULE: "COc1cc(Nc2nccc(-c3cnn4nc(OC)ccc34)n2)cc(C(F)(F)F)c1"
  Total Cell Count: 44
- MOLECULE: "CC(C)NC(=O)N1CC[C@H](NC2=Nc3cc(F)ccc3N(CC(F)F)c3ccc(Cl)cc32)C1"
  Total Cell Count: 293
- MOLECULE: "CCCSc1nc(N[C@@H]2C[C@H]2c2ccc(F)c(F)c2)c2nnn([C@@H]3C[C@H](OCCO)[C@@H](O)[C@H]3O)c2n1"
  Total Cell Count: 82
- MOLECULE: "COc1ccccc1CN[C@H]1C2CCN(CC2)[C@H]1C(c1ccccc1)c1ccccc1"
  Total Cell Count: 90
- MOLECULE: "COc1ccc(-c2ccc3ncc4c(c3c2)n(-c2ccc(N3CCNCC3)c(C(F)(F)F)c2)c(=O)n4C)cn1.O=C(O)/C=C\\C(=O)O"
  Total Cell Count: 45
- MOLECULE: "CC(C)OC(=O)N1CCC(Oc2ncnc3c2cnn3-c2ccc(S(C)(=O)=O)cc2F)CC1"
  Total Cell Count: 97
- MOLECULE: "CC(C)c1noc(N2CCC(COc3ccc(-c4ccc(S(C)(=O)=O)cc4)nc3)CC2)n1"
  Total Cell Count: 89
- MOLECULE: "C=CC(=O)Nc1ccc2[nH]c(=O)n(C3CCN(Cc4ccc(-c5nc6cc[nH]c(=O)c6cc5-c5ccccc5)cc4)CC3)c2c1"
  Total Cell Count: 83
- MOLECULE: "Cc1ccccc1C(c1ccccc1C)N1C2CCC1CC(O)(c1ccccc1)C2 (stereo unspecified)"
  Total Cell Count: 80

###

Reported Population Hoechst High Intensity Objects (%) by item:
- Tested on: Fibroblast
- EXPERIMENTAL_DETAILS: Multiplex assay against human fibroblast
- Type: toxicity, cell-based
- EXPERIMENTAL_CONTEXT: 24 h, 10 µM, compound concentration 10 uM, replicate 2
REPORTED_METRIC: Population Hoechst High Intensity Objects (%)

- COMPOUND: "Cc1ccc(C)c(Oc2ccncc2C(=O)N2CCN(C3CC3)c3ccccc32)c1"
  MEASURED_RESULT: 7
- COMPOUND: "COc1ccc(-c2ccc3ncc4c(c3c2)n(-c2ccc(N3CCNCC3)c(C(F)(F)F)c2)c(=O)n4C)cn1.O=C(O)/C=C\\C(=O)O"
  MEASURED_RESULT: 64
- COMPOUND: "CN1CCN(Cc2ccc(Nc3ncc(Cl)c(Nc4ccccc4S(=O)(=O)N(C)C)n3)cc2)CC1"
  MEASURED_RESULT: 14
- COMPOUND: "CNC(=O)Nc1ccc(-c2nc(N3CC4CCC(C3)O4)c3cnn(C4CCC5(CC4)OCCO5)c3n2)cc1"
  MEASURED_RESULT: 6
- COMPOUND: "CCc1nn(CCCN2CCN(c3cccc(Cl)c3)CC2)c(=O)n1CCOc1ccccc1.Cl [NEFAZODONE HYDROCHLORIDE]"
  MEASURED_RESULT: 1
- COMPOUND: "COc1cc(Nc2nccc(-c3cnn4nc(OC)ccc34)n2)cc(C(F)(F)F)c1"
  MEASURED_RESULT: 29
- COMPOUND: "O=c1cc(N2CCOCC2)oc2c(-c3cccc4c3sc3ccccc34)cccc12"
  MEASURED_RESULT: 6
- COMPOUND: "Cc1ccc2c(c1)c1c(n2CCc2ccc(C)nc2)CCN(C)C1 [LATREPIRDINE]"
  MEASURED_RESULT: 4
